Data origin: PubChem BioAssay (NCI)

- Test system: EKVX NSCLC
- Test details: NCI tumour cell line growth inhibition, 48 h
Parameter: TGI (µM)
Express your answer in µM, writing the number without its unit.

Q. Field request: TGI | item: `COC(=O)[C@H](Cc1ccccc1)NC(=O)N(CCC#N)CCN(C(=O)N[C@@H](Cc1ccccc1)C(=O)OC)c1ccccc1`
A. 73.2

Q. I am curious: what TGI value has been reported for COc1cc(C2c3cc4c(cc3[C@@H](Nc3ccc5c(c3)OCO5)C3COC(=O)[C@H]23)OCO4)cc(OC)c1O (some centres not stated) ?
A. 16.3

Q. What TGI value was documented for this compound, `c1cnn2ncc(-c3ccnc(Nc4ccc5c(c4)OCCO5)n3)c2c1` ?
A. 1.13

Q. Quick one: TGI for `O=C(NCCN1CCNCC1)c1ccc(Nc2nc3ccccc3c3occc23)cc1` ?
A. 27.2

Q. Need TGI, item CC(C)(C)c1ccc(OC2CCO2)cc1 (configuration not stated)
A. 90.1

Q. I would be grateful if you could share the reported TGI for `CC(C)/C(Cl)=N/OC(=O)Nc1ccc(OC(F)(F)F)cc1` .
A. 22.9

Q. # lookup: TGI of `CCCCCCCCCCCCCC[n+]1cccc(C(N)=O)c1`
A. 6.08

Q. What does the data say about its TGI? Entry: CC(C)C1=C(O)C2=C(C(=O)C1=O)C1(C)CCCC(C)(C)C1C(O)C2OC=O (configuration not stated)
A. 21.7

Q. Given `COc1nc2c(N3CCCC3)nc(N3CCNCC3)nc2nc1NCc1ccccc1` , state its recorded TGI.
A. 10.8

---

- System: SK-OV-3 ovarian
- Test details: NCI tumour cell line growth inhibition, 48 h
Task for the reader: assign each of the following compounds its reported TGI.

Q. Consider the compound shown here: `Cc1cc(C)n(C2=NS(=O)(=O)c3ccccc3N2C)n1` What is its recorded TGI?
A. > 100 µM

Q. Look at this compound and give its reported TGI. `Cc1c2ccncc2c(C)c2c1[nH]c1ccc(O)c(OCC(F)(F)F)c12`
A. 19.9 µM

Q. Data request, read-out TGI, for O=c1[nH]c2cc([N+](=O)[O-])ccc2nc1/C(=N\Nc1ccccc1)C(O)c1ccc2c(c1)OCO2 (stereo unspecified)
A. > 100 µM

Q. What TGI value was documented for this compound, `Nc1nc(Nc2ccccc2)sc1C(=O)c1ccco1` ?
A. 93.6 µM

Q. Bench note: what TGI did `Cc1c(C)c(CC(=O)N2CC2)c(C)c(C)c1CC(=O)N1CC1` show?
A. 99.5 µM

Q. Any idea what TGI was measured for `O=C1c2cccc3cccc(c23)C(=O)N1O` ?
A. > 100 µM

Q. Look up TGI for this compound: O=C(O)CN(CC(=O)O)C(C(=O)O)c1ccccc1 (stereo unspecified)
A. > 100 µM

Q. What value of TGI has been reported for the following compound? O=C1c2cccc(O)c2C(=O)c2c(OC3OC(CO)C(O)C(O)C3O)cccc21 (stereo unspecified)
A. > 100 µM

Q. What does the data say about its TGI? Entry: `Clc1nncc2sc(-c3ccccc3)nc12`
A. 80.6 µM

Q. // returns reported TGI for input CC1=NN(C(=O)c2ccncc2)C(=O)C1N=Nc1ccc(F)cc1 (stereo unspecified)
A. > 100 µM

Q. Find the recorded TGI belonging to COc1cc(C(O)c2ccc3c(c2)OCO3)cc(OC)c1OC (stereo unspecified) and report it.
A. > 100 µM
